Provide the recorded z-score for the entries that follow.
Target: Homeobox protein Hox-A13 (Mus musculus)
Assay: inhibitors of HoxA13-DNA binding, primary screen, biochemical, fluorescence polarization, labeled oligonucleotide (AID 1185)
Settings: 15 min, higher = more signal, called active from +8 up or from −8 down
Number, no unit, nothing else.

# return z-score of COC(OC)[C@@H](C)[C@H](OC)[C@@H](C)[C@H](OC)c1ccccc1 (system: Homeobox protein Hox-A13 (Mus musculus))
-0.402

# return z-score of CC(=O)OC[C@H]1O[C@H](CC=NOC(C)CN2CCCCc3nc(C)c(C)cc32)C=C[C@@H]1OC(C)=O (stereo not given in full) (system: Homeobox protein Hox-A13 (Mus musculus))
-3.74

# return z-score of CC(C)CON=C1C[C@@H](O)[C@@H](O)[C@@H]2[C@@H]3C(=O)N(Cc4ccccc4)C(=O)[C@@H]3CC[C@H]12 (system: Homeobox protein Hox-A13 (Mus musculus))
-2.34

# return z-score of CCN1C(=O)[C@H]2[C@H]3[C@H](O)[C@H](O)CC(=NNC(=O)OCc4ccccc4)[C@@H]3CC[C@H]2C1=O (system: Homeobox protein Hox-A13 (Mus musculus))
-0.144

# return z-score of CON=C1c2cc(OC)ccc2O[C@H](c2cccc(OC)c2)[C@H]1O (system: Homeobox protein Hox-A13 (Mus musculus))
-0.365

# return z-score of CC(C)(C)N1C(=O)[C@H]2[C@H]3[C@H](O)[C@H](O)CC(=NOC[C@@H](O)COCc4ccco4)[C@@H]3CC[C@H]2C1=O (system: Homeobox protein Hox-A13 (Mus musculus))
-2.78

# return z-score of CC(C)=CCCC(C)=CCON=C1C[C@@H](O)[C@@H](O)[C@@H]2[C@@H]3C(=O)N([C@@H](C)c4ccccc4)C(=O)[C@@H]3CC[C@@H]12 (system: Homeobox protein Hox-A13 (Mus musculus))
-1.3

# return z-score of CO[C@H]1COC(=O)[C@H](C)COC(=O)[C@@H](OCc2ccccc2)C=C[C@@H]1C (system: Homeobox protein Hox-A13 (Mus musculus))
-0.571

# return z-score of CCOC(=O)[C@H](Cc1ccccc1)NC(=O)CCC1CC(OC(=O)NCc2ccc3c(c2)OCO3)CC2(CCCC(COC(=O)NCCc3ccc(Cl)cc3)O2)O1 (stereo not given in full) (system: Homeobox protein Hox-A13 (Mus musculus))
-1.76

# return z-score of CC(C)C(=O)N[C@H]1CCCN1C(=O)C=Cc1ccccc1 (system: Homeobox protein Hox-A13 (Mus musculus))
-2.18

# return z-score of CO[C@@H]1COC(=O)[C@H](CCSC)NC(=O)CC=C[C@@H](C)COC(=O)[C@@H]2CCCN2C(=O)CC=C[C@H]1C (system: Homeobox protein Hox-A13 (Mus musculus))
0.213

# return z-score of OC[C@H]1O[C@H](C#Cc2ccccc2)C=C[C@@H]1O (system: Homeobox protein Hox-A13 (Mus musculus))
-2.53

# return z-score of CC1(C)O[C@H]2OC([C@H](O)CON3C(=O)c4ccccc4C3=O)[C@H](O)[C@H]2O1 (stereo not given in full) (system: Homeobox protein Hox-A13 (Mus musculus))
0.366

# return z-score of COc1ccc(O[C@H]2C=C[C@@H](c3ccccc3)O[C@@H]2CON=C2c3cc(OC)ccc3O[C@H](c3cccc(OC)c3)[C@H]2O)cc1 (system: Homeobox protein Hox-A13 (Mus musculus))
1.67

# return z-score of O=C1[C@H]2[C@H]3[C@H](O)[C@H](O)CC(=NOCc4ccccc4)[C@@H]3CC[C@H]2C(=O)N1c1cccc(Oc2ccccc2)c1 (system: Homeobox protein Hox-A13 (Mus musculus))
-1.24

# return z-score of C[C@H]1CC[C@H]2C(=O)OC(COc3ccc(C(C)(C)C)cc3)CN2[C@@H]1c1ccc(Br)cc1 (stereo not given in full) (system: Homeobox protein Hox-A13 (Mus musculus))
-3.32

# return z-score of COc1ccc(OC[C@H]2CN3[C@@H](CC[C@@H](C)[C@@H]3c3ccc(Br)cc3)C(=O)O2)cc1 (system: Homeobox protein Hox-A13 (Mus musculus))
-0.626

# return z-score of C=CC[C@@H]1C=C[C@H](ON=C2C[C@@H](O)[C@@H](O)[C@@H]3[C@@H]4C(=O)N(CC)C(=O)[C@@H]4CC[C@@H]23)[C@@H](CO)O1 (system: Homeobox protein Hox-A13 (Mus musculus))
0.0713

# return z-score of C[C@]12CCC3c4ccc(OCC5CO5)cc4CCC3C1CC[C@@H]2O (stereo not given in full) (system: Homeobox protein Hox-A13 (Mus musculus))
-2.47

# return z-score of CC(=O)OC[C@H]1O[C@H](CC=NOC[C@@H](O)[C@H]2O[C@@H]3OC(C)(C)O[C@@H]3[C@H]2O)C=C[C@@H]1OC(C)=O (system: Homeobox protein Hox-A13 (Mus musculus))
-0.147
